These data points were gathered from patent US11013780B2.

# Procedure Details: Pharmacokinetics in dogs after SC and IV administration
# Protocol Conditions: dog, in vivo; dogs, bolus IV 1 mg/kg; read-out: Cmax (C5 min)
Where a SMILES comes first, the peptide text is derived from it. [ ]: non-standard residue; d: D form. Arg(Me) = CNC(=N)NCCC[C@H](N)C(=O)O; Hyp = O=C(O)[C@@H]1C[C@@H](O)CN1; azaGly = NNC(=O)O
Endpoint Label: Cmax at 5 min (ng/mL)
Answers are plain numbers, in ng/mL.

Q) Report Cmax at 5 min for CC(=O)O.CNC(=N)NCCC[C@H](NC(=O)[C@H](CC(C)C)NC(=O)NNC(=O)[C@H](Cc1ccccc1)NC(=O)[C@@H](NC(=O)[C@H](CC(N)=O)NC(=O)[C@@H]1C[C@@H](O)CN1C(=O)[C@@H](Cc1ccc(O)cc1)NC(C)=O)[C@@H](C)O)C(=O)N[C@@H](Cc1c[nH]c2ccccc12)C(N)=O [API-MA] (Ac-[dY][Hyp]NTF[azaGly]L[Arg(Me)]W-NH2) please.
A) 4250
